Molecular target: BACE1 (Homo sapiens (Human), UniProt P56817)
Sequence (P56817 46-501, species assumed): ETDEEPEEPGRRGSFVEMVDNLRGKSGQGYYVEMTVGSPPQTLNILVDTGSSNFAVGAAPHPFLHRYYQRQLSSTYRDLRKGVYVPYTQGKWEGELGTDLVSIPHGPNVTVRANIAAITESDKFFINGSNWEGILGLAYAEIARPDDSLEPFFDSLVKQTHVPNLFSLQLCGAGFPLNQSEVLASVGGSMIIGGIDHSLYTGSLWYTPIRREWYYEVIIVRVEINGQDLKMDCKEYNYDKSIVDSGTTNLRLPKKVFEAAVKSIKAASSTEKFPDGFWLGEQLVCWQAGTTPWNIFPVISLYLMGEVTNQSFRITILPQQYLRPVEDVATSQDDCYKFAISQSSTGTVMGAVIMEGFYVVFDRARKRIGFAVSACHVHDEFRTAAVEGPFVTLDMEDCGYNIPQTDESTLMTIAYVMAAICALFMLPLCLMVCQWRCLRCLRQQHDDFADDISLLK
Assay: In vitro BACE1 cell-based assay (Aβ40 in conditioned medium of cells stably expressing APP, HTRF)
Conditions: Aβ40 in conditioned media after 24 h incubation
pIC50: −log10 of the molar value.
READOUT_NAME: pIC50

Below are worked cases with known answers.
// query Write down the reported pIC50 of CN1C(N)=N[C@](C)(c2cc(/C=C(\F)c3cc4c(cn3)OCCO4)ccc2F)CS1(=O)=O [Example 187] , test system: BACE1 (Homo sapiens (Human), UniProt P56817).
// result 6.97

// query Follow-up entry: CC1(C)C(N)=N[C@](C)(c2cc(/C=C(\F)c3cnc(Cl)cn3)ccc2F)C(F)(F)S1(=O)=O [Example 191]
// result 5.29

// query And for C[C@]1(c2cc(/C=C(\F)c3cnc(OCCF)cn3)ccc2F)N=C(N)[C@@]2(CF)CC[C@@H]1S2(=O)=O [Example 133] ?
// result 6.47

// query Same read-out for CN1C(N)=N[C@](C)(c2cc(/C=C(\F)c3ccc(Cl)cn3)ccc2F)CS1(=O)=O [Example 104] ?
// result 7.62

// query Check CC1(C)C(N)=N[C@](C)(c2cc(/C=C(\F)c3cnc(O)cn3)ccc2F)CS1(=O)=O [Example 140] too.
// result 6.62

A = CN1C(N)=N[C@](C)(c2cc(/C=C(/F)c3ccc(Cl)cn3)cc(F)c2F)CS1(=O)=O [Example 151]
B = CN1C(N)=N[C@](C)(c2cc(/C=C(\F)c3cc(F)c(C#N)cn3)ccc2F)CS1(=O)=O [Example 226]
// query Response body: label of entry with the larger pIC50; valid values A , B . # answer = label of selected item
// result B
(B: 6.47, A: 5.85)

1 = Cc1nnc(COc2cnc(/C(F)=C/c3ccc(F)c([C@]4(C)CS(=O)(=O)N(C)C(N)=N4)c3)cn2)o1 [Example 173]
2 = COc1cnc(/C(F)=C/c2ccc(F)c([C@]3(C)CS(=O)(=O)N(C)C(N)=N3)c2)cn1 [Example 241]
3 = C#C[C@@H](CC)Oc1cnc(/C(F)=C/c2ccc(F)c([C@]3(C)CS(=O)(=O)C(C)(C)C(N)=N3)c2)cn1 (single isomer, unassigned) [Example 177]
// query Please list these in order of increasing pIC50. Thank you! Please list the labels according to the requested order.
// result 3, 2, 1

====

Molecular target: human recombinant BACE2 (Homo sapiens (Human))
Assay: In vitro enzymatic BACE2 FRET assay
Details: read-out: BACE2 Enzyme IC50
READOUT_NAME: IC50 (nM)

Illustrative cases are given below, each with its answer.
// query Quick one: IC50 of CC1(C)C(N)=N[C@](C)(c2cc(/C=C(\F)c3ccc(C#N)cn3)cc(F)c2F)CS1(=O)=O [Example 192] ?
// result 46

// query Cool, now CN1C(N)=N[C@](C)(c2cc(/C=C(\F)c3cc4c(cn3)OCCO4)ccc2F)CS1(=O)=O [Example 187]
// result 78

1 = C#C[C@@H](CC)Oc1cnc(/C(F)=C/c2ccc(F)c([C@]3(C)CS(=O)(=O)C(C)(C)C(N)=N3)c2)cn1 (single isomer, unassigned) [Example 177]
2 = CC1(C)C(N)=N[C@](C)(c2cc(/C=C(\F)c3cnc(OCc4ccncc4)cn3)ccc2F)CS1(=O)=O [Example 210]
// query Given the listed records, identify the one among 1 and 2 with higher IC50. Answer = label.
// result 2
(2: 476 nM, 1: 101 nM)

a = C#C[C@H](C)Oc1cnc(/C(F)=C/c2ccc(F)c([C@]3(C)CS(=O)(=O)N(C)C(N)=N3)c2)cn1 [Example 171]
b = CC1(C)C(N)=N[C@](C)(c2cc(/C=C(\F)c3cnc(OCc4ccccc4)cn3)cnc2F)CS1(=O)=O [Example 209]
// query I'm curious, which of these has a smaller IC50 number: a or b ? Please indicate the selected item by its label.
// result a

a = CN1C(N)=N[C@](C)(c2cc(/C=C(\F)c3cnc(OCC(F)(F)C(F)F)cn3)ccc2F)CS1(=O)=O [Example 148]
b = CC1(C)C(N)=N[C@](C)(c2cc(/C=C(\F)c3cnc(OCCn4ccnc4)cn3)ccc2F)CS1(=O)=O [Example 155]
c = COC(C)COc1cnc(/C(F)=C/c2ccc(F)c([C@@]3(C)N=C(N)[C@@]4(CF)CC[C@@H]3S4(=O)=O)c2)cn1 (some centres unmarked) [Example 136]
d = C[C@@]1(c2cc(/C=C(\F)c3ccc(Cl)cn3)ccc2F)CS(=O)(=O)C2(CCC2)C(N)=N1 [Example 100]
// query Reorder the items by IC50, least to greatest. Would you mind listing the labels in the order requested?
// result d, a, c, b
(d: 7 nM, a: 217 nM, c: 315 nM, b: 2390 nM)

====

Molecular target: human recombinant BACE2 (Homo sapiens (Human))
Test: In vitro enzymatic BACE2 FRET assay
Settings: read-out: BACE2 Enzyme IC50
READOUT_NAME: IC50 (nM)

Here is how some compounds turned out for IC50.
// query What IC50 appears in the records for this compound with human recombinant BACE2 (Homo sapiens (Human))? CCCOc1cnc(/C(F)=C/c2ccc(F)c([C@@]3(C)N=C(N)[C@@]4(CF)CC[C@@H]3S4(=O)=O)c2)cn1 [Example 135]
// result 120

// query What do you get for CN1C(N)=N[C@](C)(c2cc(/C=C(\F)c3cnc(Cl)cn3)ccc2F)CS1(=O)=O [Example 111] ?
// result 5

// query Same lookup for CN1C(N)=N[C@](C)(c2cc(/C=C(\F)c3cnc(OCC(F)(F)F)cn3)ccc2F)CS1(=O)=O [Example 117] , please.
// result 186

a = CN1C(N)=N[C@](C)(c2cc(/C=C(\F)c3ccc(C#N)s3)ccc2F)CS1(=O)=O [Example 256]
b = Cc1noc(COc2cnc(/C(F)=C/c3ccc(F)c([C@]4(C)CS(=O)(=O)C(C)(C)C(N)=N4)c3)cn2)n1 [Example 175]
c = CN1C(N)=N[C@](C)(c2cc(/C=C(\F)c3ccc4c(n3)OCCO4)ccc2F)CS1(=O)=O [Example 255]
// query Order the 3 compounds from highest to lowest IC50. Answer format: the labels, ordered as requested.
// result c, b, a
(c: 458 nM, b: 225 nM, a: 14 nM)

1 = CC1(C)C(N)=N[C@](C)(c2cc(/C=C(\F)c3ccc(F)cn3)ccc2F)CS1(=O)=O [Example 262]
2 = CN1C(N)=N[C@](C)(c2cc(/C=C(\F)c3cc4c(cn3)OCCC4)ccc2F)CS1(=O)=O [Example 239]
// query Which has the smaller recorded IC50, 1 or 2 ? Mark your selection by writing its label.
// result 1

====

Target: human recombinant BACE2 (Homo sapiens (Human))
Assay: In vitro enzymatic BACE2 FRET assay
Conditions: read-out: BACE2 Enzyme IC50
READOUT_NAME: IC50 (nM)

A = C#C[C@H](C)Oc1cnc(/C(F)=C/c2ccc(F)c([C@]3(C)CS(=O)(=O)C(C)(C)C(N)=N3)c2)cn1
B = CN1C(N)=N[C@](C)(c2cc(/C=C(\F)c3ccc(F)cn3)cc(F)c2F)CS1(=O)=O
// query Hello, I am sorting some records. Could you say if A or B has the smaller IC50 value? Lab log: write the label of the selected item as the result.
// result B
(B: 28 nM, A: 120 nM)

a = CC1(C)C(N)=N[C@](C)(c2cc(/C=C(\F)c3cnc(OCCn4cccn4)cn3)ccc2F)CS1(=O)=O
b = COC(C)COc1cnc(/C(F)=C/c2ccc(F)c([C@]3(C)CS(=O)(=O)N(C)C(N)=N3)c2)cn1 (some centres unmarked)
// query Two entries are listed, a and b . Which one carries the higher IC50? Returns: label corresponding to the selected item.
// result a
(a: 478 nM, b: 84 nM)

A = Cc1nc(COc2cnc(/C(F)=C/c3cc(F)c(F)c([C@]4(C)CS(=O)(=O)N(C)C(N)=N4)c3)cn2)c(C)o1
B = COc1cnc(/C(F)=C/c2ccc(F)c([C@@]3(C)N=C(N)[C@@]4(CF)CC[C@@H]3S4(=O)=O)c2)cn1
C = C[C@@H]1COc2nc(/C(F)=C/c3ccc(F)c([C@]4(C)CS(=O)(=O)N(C)C(N)=N4)c3)ncc2O1
D = CC1(C)C(N)=N[C@](CF)(c2cc(/C=C(\F)c3ccc(C#N)cn3)ccc2F)CS1(=O)=O
// query Form: Sort by [IC50] Order [ ascending ] Dear reader, please state the labels in the requested order.
// result D, A, B, C
(D: 57 nM, A: 94 nM, B: 180 nM, C: 533 nM)

====

Biological target: human recombinant BACE2 (Homo sapiens (Human), UniProt Q9Y5Z0)
Sequence (Q9Y5Z0 63-518): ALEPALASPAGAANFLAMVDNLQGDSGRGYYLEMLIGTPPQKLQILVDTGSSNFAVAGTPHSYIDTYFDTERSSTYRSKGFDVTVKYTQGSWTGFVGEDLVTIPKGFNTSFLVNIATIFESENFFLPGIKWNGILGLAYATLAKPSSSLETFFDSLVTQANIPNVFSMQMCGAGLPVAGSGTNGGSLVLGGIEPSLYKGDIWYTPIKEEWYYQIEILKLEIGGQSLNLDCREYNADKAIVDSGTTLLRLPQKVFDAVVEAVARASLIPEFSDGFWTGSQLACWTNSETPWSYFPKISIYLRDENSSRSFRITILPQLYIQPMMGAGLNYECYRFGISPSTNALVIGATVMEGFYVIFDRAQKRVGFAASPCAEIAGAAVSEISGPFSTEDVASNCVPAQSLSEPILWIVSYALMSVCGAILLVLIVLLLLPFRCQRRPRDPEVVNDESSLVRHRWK
Test: In vitro enzymatic BACE2 FRET assay
Conditions: read-out: BACE2 Enzyme IC50
READOUT_NAME: IC50 (µM)

I = CN1C(N)=N[C@](C)(c2cc(/C=C(\F)c3ccc(C#N)cn3)ccc2F)C(C)(C)S1(=O)=O [Example 180]
II = C#CCOc1cnc(/C(F)=C/c2cc(F)c(F)c([C@]3(C)CS(=O)(=O)C(C)(C)C(N)=N3)c2)cn1 [Example 204]
// query Would you let me know which has the greater IC50 value, I or II ? Output the label that corresponds to your choice.
// result II
(II: 0.179 µM, I: 0.075 µM)
